Known pIC50 of a selection of compounds
- Tested on: RAW264.7
- testMethodNotes: Anti-inflammatory activity in mouse RAW264.7 cells assessed as inhibition of LPS-induced NO production preincubated for 1 hr followed by LPS stimulation and measured after 24 hrs by Griess reagent based assay
- Type: functional, cell-based
pIC50: −log10 of the molar value.
observedProperty: pIC50

C=C[C@]1(C)C=C2CC[C@@H]3[C@](C)(CO)CCC[C@@]3(C)[C@@H]2CC1 | 4.99
CC(C)CC(=O)OC[C@@]1(O)C[C@@]23CC[C@H]4[C@@](C)(CCC[C@@]4(C)C(=O)O)[C@@H]2CC[C@@H]1C3 | 4.55
C=C[C@@]1(C)CC=C2C(CC[C@@H]3[C@](C)(CO)CCC[C@@]23C)C1 (some centres undefined) | 4.75
CC(C)CC(=O)OC[C@H](O)[C@]1(C)C=C2CC[C@H]3[C@@](C)(CCC[C@]3(C)C(=O)O)[C@@H]2CC1 | 4.45

---

- System: RAW264.7
- testMethodNotes: Anti-inflammatory activity in mouse RAW264.7 cells assessed as inhibition of LPS-induced NO production preincubated for 1 hr followed by LPS stimulation and measured after 24 hrs by Griess reagent based assay
- Format: functional, cell-based
observedProperty: log10 IC50 (log10 of the value in µM)

C=C[C@]1(C)C=C2C(=O)C[C@H]3[C@@](C)(CCC[C@@]3(C)C(=O)O)[C@@H]2CC1 | 1.82
C=CCCCCC/C=C\[C@H](O)C#CC#CC(CC)OC(=O)/C=C/c1ccc(O)cc1 (stereo not given in full) | 0.04
C=C[C@@]1(C)CCC2=C(C1)C(=O)C[C@@H]1[C@](C)(C(=O)O)CCC[C@@]21C | 1.17
C[C@@]12CCC[C@@](C)(C(=O)O)[C@H]1CC[C@]13C=C(C(=O)O)[C@H](CC[C@H]12)C3 | 1.71
C=CCCCCC/C=C\[C@H](O)C#CC#C[C@@H](O)CC | 1.61
